Origin of values: patent US20110053897A1

Parameter: IC50. Scope: all listed entries.
target: Syk kinase (Homo sapiens); construct: purchased; test: Syk kinase inhibition, Caliper LabChip off-chip mobility-shift kinase assay; assay type: biochemical; conditions: Caliper LabChip assay; read-out: Syk Enzyme IC50
# number only, unit nM dropped from output

Molecule	IC50 [nM]
Nc1ncc(-c2cc3ccn(CCO)c(=O)c3c(N3CCCC3)n2)cn1	546
COCCOc1cc(Nc2cc3ccn(CC(O)CO)c(=O)c3c(NC(C)(C)C)n2)ncn1 (centres unmarked)	78
[2H]C([2H])([2H])n1ccc2cc(Nc3cc(Cl)ccn3)nc(NC[C@@H]3CCCO3)c2c1=O	236

Q) Report IC50 from Syk kinase (Homo sapiens) testing of `CC(C)(C)Nc1nc(-c2cnc(N)nc2)cc2ccn(C(C)(C)C(N)=O)c(=O)c12`
A) 57

Q) Using Syk kinase (Homo sapiens) as the test system, report measured IC50 of `Nc1nc(Nc2nccc(O)n2)cc2ccn(CCO)c(=O)c12` .
A) 359

Q) Provide measured IC50 on Syk kinase (Homo sapiens) for `CC(C)n1ccc2cc(-c3cnc(N)nc3)nc(N[C@H]3CC[C@@H](O)C3)c2c1=O` please.
A) 7

Q) Write IC50 of `CCn1ccc2cc(-c3cnc(N)nc3)nc(N)c2c1=O` ; system used: Syk kinase (Homo sapiens)
A) 287

Q) Provide IC50, tested on Syk kinase (Homo sapiens), for `CC(C)(C)Nc1nc(-c2cnc(N)nc2)cc2ccn(CC3(CO)COC3)c(=O)c12` .
A) 10

Q) Report the value of IC50 obtained on Syk kinase (Homo sapiens) for `Nc1ncc(-c2cc3ccn(CCO)c(=O)c3c(NC3CC3)n2)cn1` .
A) 38
